Value source: PubChem BioAssay AID588342

molecular target: Luciferin 4-monooxygenase (Photinus pyralis); assay: qHTS profiling assay for firefly luciferase inhibitor/activator using purifed enzyme and Km concentrations of substrates (counterscreen for miR-21 project); details: purified FLuc, luminescence inhibition; series mostly up to 57.5 µM; further: nearly all actives have a fitted effect of over 55% in size
Out of some 360,000 compounds screened, about 25,000 (6.9%) were called active. Inconclusive results (about 9%) are left out. The call rests on the fitted dose curve; in most records, active means well fitted inhibition curve with a large enough effect; inconclusive means small, poorly fitted or top-dose-only effect; inactive means flat fitted curve, though single readings scatter. Shown is part of a subset that was picked to be rich in actives.
Outcome field: choose from 1.0 for active, 0.0 for inactive

smiles_text=Cc1c(NC(=O)c2cc(-c3ccc(Cl)s3)nc3ccccc23)c(=O)n(-c2ccccc2)n1C category=0.0

Hello, I am checking results. What call was entered for COc1ccc(CNC(=O)c2cc3c(=O)[nH]c4ccc(C)cc4c3s2)c(OC)c1 ?
0.0

Hello, I am checking results. What call was entered for Cc1ccc(S(=O)(=O)N2CCN(C(=O)c3ccccc3-c3nc4ccccc4s3)CC2)c(C)c1 ?
0.0

Hello, I am checking results. What call was entered for O=C(c1cc(-c2ccc(Cl)s2)nc2ccccc12)N1CCOCC1 ?
1.0

Hello, I am checking results. What call was entered for CC(=O)N1CCN(C(=O)c2cc(-c3ccc(C)o3)nc3ccccc23)CC1 ?
1.0

====

target: Luciferin 4-monooxygenase (Photinus pyralis); assay: qHTS profiling assay for firefly luciferase inhibitor/activator using purifed enzyme and Km concentrations of substrates (counterscreen for miR-21 project); details: purified FLuc, luminescence inhibition; series mostly up to 57.5 µM; further: nearly all actives have a fitted effect of over 55% in size
About 25,000 (6.9%) of roughly 360,000 compounds were called active. Not shown: some 9% with an inconclusive outcome. Calls come from the whole dose curve; as a rule, active = well fitted inhibition curve with a large enough effect; inconclusive = small, poorly fitted or top-dose-only effect; inactive = flat fitted curve, though single readings scatter. Many of the other results were omitted from the sample, so actives are more common in it than they were.
Outcome field: choose from active, inactive

smiles_text=O=C(COC(=O)CCc1nc2ccccc2c(=O)[nH]1)Nc1ccc(N2CCOCC2)cc1 category=inactive

Hello, I am checking results. What call was entered for CCCCc1cc(=O)oc2c(C)c(OCC(=O)N3CCC(C(N)=O)CC3)ccc12 ?
inactive

Hello, I am checking results. What call was entered for CCCc1cc(=O)oc2c(C)c(OCC(=O)N3CCC(C(=O)O)CC3)ccc12 ?
inactive

Hello, I am checking results. What call was entered for c1csc(-c2nc(-c3ccncc3)no2)c1 ?
active

Hello, I am checking results. What call was entered for COc1ccc(C(=O)CC(=O)c2ccc(C)cc2)c(O)c1 ?
active

Hello, I am checking results. What call was entered for COc1ccc(N2CCN(C(=O)CCc3nc(-c4ccc(C)cc4)no3)CC2)cc1 ?
inactive

Hello, I am checking results. What call was entered for COc1ccc(C(=O)NNS(=O)(=O)c2ccc(C)cc2)cc1 ?
inactive

Hello, I am checking results. What call was entered for N#CCc1ccc(OC(=O)c2cccnc2)cc1 ?
inactive

Hello, I am checking results. What call was entered for COc1ccc(C(=O)Cc2cnn(-c3ccccc3)c2)c(O)c1 ?
active

Hello, I am checking results. What call was entered for Cc1[nH]nc(-c2ccc(OCc3cnn(-c4ccccc4)c3)cc2O)c1Oc1ccc(Cl)cc1 ?
inactive

Hello, I am checking results. What call was entered for COc1cccc(CNC(=O)CSc2c3c(nc4cc(Cl)ccc24)CCCC3)c1 ?
inactive

====

target: Luciferin 4-monooxygenase (Photinus pyralis) (UniProt P08659); experiment: qHTS profiling assay for firefly luciferase inhibitor/activator using purifed enzyme and Km concentrations of substrates (counterscreen for miR-21 project); conditions: purified FLuc, luminescence inhibition; series mostly up to 57.5 µM; further: nearly all actives have a fitted effect of over 55% in size
Sequence (P08659 whole entry, looked up): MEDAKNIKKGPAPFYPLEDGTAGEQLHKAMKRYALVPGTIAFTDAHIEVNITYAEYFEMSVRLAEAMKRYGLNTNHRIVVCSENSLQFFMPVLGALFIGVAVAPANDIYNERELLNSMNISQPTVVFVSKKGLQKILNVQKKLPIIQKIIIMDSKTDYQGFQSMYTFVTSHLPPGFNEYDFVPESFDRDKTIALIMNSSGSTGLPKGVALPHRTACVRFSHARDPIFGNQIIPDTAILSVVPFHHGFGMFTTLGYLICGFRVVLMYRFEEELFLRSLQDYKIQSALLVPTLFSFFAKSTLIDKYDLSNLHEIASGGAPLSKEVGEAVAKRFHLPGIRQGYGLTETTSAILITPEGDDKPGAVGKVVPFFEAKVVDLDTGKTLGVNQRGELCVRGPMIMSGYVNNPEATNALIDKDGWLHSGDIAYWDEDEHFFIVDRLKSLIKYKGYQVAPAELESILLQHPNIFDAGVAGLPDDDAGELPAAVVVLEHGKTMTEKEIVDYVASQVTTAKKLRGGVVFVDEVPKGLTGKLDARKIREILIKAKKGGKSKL
The whole screen tested about 360,000 compounds, of which about 25,000 (6.9%) were called active. Another 9% or so got no clear call; they are omitted. Calls follow the shape of the dose curve; as a rule, active = well fitted inhibition curve with a large enough effect; inconclusive = small, poorly fitted or top-dose-only effect; inactive = flat fitted curve, though single readings scatter. Only a selection was taken, and actives are over-represented in it overall.
Outcome field: choose from yes (1) for active, no (0) for inactive

Sample answers from the record:
compound=CC(=O)N/C(=C/c1ccc(Cl)cc1)C(=O)NCCc1c[nH]c2ccccc12 measurement_target="Luciferin 4-monooxygenase (Photinus pyralis) (UniProt P08659)" category="no (0)"
compound="Cc1cc(NC(=O)CN2CCCC(C)C2)n(-c2nc3ccccc3s2)n1 (stereo not drawn)" measurement_target="Luciferin 4-monooxygenase (Photinus pyralis) (UniProt P08659)" category="no (0)"
compound="Cc1ccc2cccc(NC(=O)C(C)Oc3ccc(C)c(C)c3)c2n1 (stereo not drawn)" measurement_target="Luciferin 4-monooxygenase (Photinus pyralis) (UniProt P08659)" category="no (0)"
compound="O=C(CNC(=O)C1COc2ccccc2O1)N/N=C/c1cc(Br)c(O)c(Br)c1 (stereo not drawn)" measurement_target="Luciferin 4-monooxygenase (Photinus pyralis) (UniProt P08659)" category="no (0)"
compound=Cc1ccc(C(=O)N/C(=C/c2ccco2)C(=O)NCCc2c[nH]c3ccccc23)cc1C measurement_target="Luciferin 4-monooxygenase (Photinus pyralis) (UniProt P08659)" category="yes (1)"

Hello, I am checking results. What call was entered for Cc1ccc(C)c(CNC(=O)c2cc3ccccn3n2)c1 ?
no (0)

Hello, I am checking results. What call was entered for COCCNC(=O)CSc1nc(-c2ccccc2)[nH]c1-c1ccc(C)cc1 ?
no (0)

Hello, I am checking results. What call was entered for N#CC(C(=O)c1ccc(S(=O)(=O)N2CCCCCC2)cc1)c1nc2ccccc2[nH]1 (stereo not drawn) ?
no (0)

Hello, I am checking results. What call was entered for O=C(NCc1ccccc1Cl)c1csc2c1CCCCC2 ?
no (0)

Hello, I am checking results. What call was entered for O=C(O)COc1ccc(-c2nccc(-c3cccs3)n2)cc1 ?
yes (1)

Hello, I am checking results. What call was entered for Cc1c(C(=O)Nc2ccccn2)oc2ccc(Br)cc12 ?
yes (1)

Hello, I am checking results. What call was entered for Oc1cc(O)c2c(c1)OC(c1ccc(O)c(O)c1)C(O)C2 (stereo not drawn) ?
no (0)

Hello, I am checking results. What call was entered for CCSc1ncc(Cl)c(C(=O)Nc2c(C(=O)c3ccccc3)oc3ccccc23)n1 ?
no (0)

Hello, I am checking results. What call was entered for CC(C)CN(C(=O)CSc1ncnc2sccc12)C1CCS(=O)(=O)C1 (stereo not drawn) ?
no (0)

Hello, I am checking results. What call was entered for O=C(c1ccc(F)cc1)N1CCC(n2nnc3ccccc32)CC1 ?
yes (1)

Hello, I am checking results. What call was entered for CCC(C)Cn1c(O)cc2nn(-c3nc4ccccc4s3)c(=O)c-2c1C (stereo not drawn) ?
yes (1)

Hello, I am checking results. What call was entered for COc1cc(C(=O)Nc2ncccc2C)ccc1OCC(=O)N1CCOCC1 ?
no (0)

Hello, I am checking results. What call was entered for CCOc1ccc(CCNC(=O)c2csc3c2CCCCC3)cc1 ?
no (0)

====

Biological target: Luciferin 4-monooxygenase (Photinus pyralis) (UniProt P08659)
Experiment: qHTS profiling assay for firefly luciferase inhibitor/activator using purifed enzyme and Km concentrations of substrates (counterscreen for miR-21 project); further: nearly all actives have a fitted effect of over 55% in size
Conditions: purified FLuc, luminescence inhibition; series mostly up to 57.5 µM
Source text: MLPCN Grant: 1 R21 NS059478-01 (miR-21 grant) Assay Provider: NCGC NCGC Assay Overview: Firefly (Photinus pyralis) luciferase is one of the most commonly used transcriptional reporters for a number of reasons. […] Although light produced in a bioluminescence reaction is of lower intensity than that produced during fluorescence emission, this is offset by little to no background light inherent to luminescent assays. […]
The whole screen tested about 360,000 compounds, of which about 25,000 (6.9%) were called active. Another 9% or so got no clear call; they are omitted. Calls follow the shape of the dose curve; as a rule, active = well fitted inhibition curve with a large enough effect; inconclusive = small, poorly fitted or top-dose-only effect; inactive = flat fitted curve, though single readings scatter. The sample holds actives, similar compounds and a random draw of the others, so the mix is not that of the screen.
Outcome field: choose from active, inactive

compound=COc1ccc2c(c1)C=C(C(=O)NCc1cc(Br)ccc1OC)CO2 category=inactive
compound=C=CCc1cccc2cc(C(=O)Nc3ccc(NC(C)=O)cc3)c(=O)oc12 category=inactive
compound=COc1ccc(N2CCN(C(=O)c3c(C)oc4nc(C)nc(N5CCCC5)c34)CC2)cc1 category=inactive
compound=Cc1cccc(N2CCN(C(=O)c3cnc(N4CCCC4)nc3C)CC2)c1C category=inactive
compound=CC(C)Cc1nc(Nc2ccc(S(=O)(=O)N3CCCC3)cc2)c2nnn(Cc3ccccc3)c2n1 category=inactive
compound="COc1ccc(CCN2C(=O)N(c3cccc(OC)c3)C(=O)C2CC(=O)Nc2ccccc2)cc1 (stereo not given)" category=inactive

Hello, I am checking results. What call was entered for O=C(Cn1c(=O)nc(-c2ccccc2)c2cc(Cl)ccc21)NCc1ccc(Cl)cc1 ?
inactive

Hello, I am checking results. What call was entered for Oc1cccc2ccc(/C=C/c3ccc(Br)s3)nc12 ?
active

Hello, I am checking results. What call was entered for Cc1ccc(-n2c(C)cc(C(=O)CN3C(=O)C(=O)N(C4CCCC4)C3=O)c2C)cc1 ?
inactive

Hello, I am checking results. What call was entered for COc1ccc(-n2cnc3cc(C(=O)NC4CCCC4)ccc32)cc1 ?
inactive

Hello, I am checking results. What call was entered for c1ccc(-n2ncc3c2ncn2c(C4CCCCC4)nnc32)cc1 ?
inactive

Hello, I am checking results. What call was entered for CCS(=O)(=O)c1ccc(O)c(NC(=O)COc2ccc(Cl)cc2)c1 ?
active

Hello, I am checking results. What call was entered for CCS(=O)(=O)c1cc([N+](=O)[O-])c(Sc2ccccc2N)s1 ?
active

Hello, I am checking results. What call was entered for CCC(C(=O)OC)n1cnc2c(oc3ccccc32)c1=O (stereo not given) ?
inactive

Hello, I am checking results. What call was entered for COc1ccc(CN2CCN(C(=O)c3cc(C4CC4)nn3-c3ccccc3)CC2)cc1F ?
inactive

Hello, I am checking results. What call was entered for Nc1ccc(S(=O)(=O)Nc2nccc(/C=C/c3ccc(Br)s3)n2)cc1 ?
inactive

Hello, I am checking results. What call was entered for CCOc1ccc(N(CC)C(=O)c2cc3c(=O)oc4ccccc4c3s2)cc1 ?
inactive

Hello, I am checking results. What call was entered for CS(=O)(=O)c1ccc(C(=O)OCC(=O)NNC(=O)COc2ccc(Cl)cc2)cc1 ?
inactive

Hello, I am checking results. What call was entered for Cc1ccc2oc(=O)c3cnn(CC(=O)N4CCCCCC4)c3c2c1 ?
inactive

Hello, I am checking results. What call was entered for O.O.O.O=S(=O)([O-])OC[C@H]1O[C@@H](O[C@]2(COS(=O)(=O)[O-])O[C@H](OS(=O)(=O)[O-])[C@@H](OS(=O)(=O)[O-])[C@@H]2OS(=O)(=O)[O-])[C@H](OS(=O)(=O)[O-])[C@@H](OS(=O)(=O)[O-])[C@@H]1OS(=O)(=O)[O-].[Al] ?
inactive

Hello, I am checking results. What call was entered for CC(C)Cn1c(=O)c2ccccc2n2c(-c3cccc(Cl)c3)nnc12 ?
inactive

Hello, I am checking results. What call was entered for COc1cc(OC)cc(-c2c(-c3ccc(F)cc3)c3cc(-c4ccc5cc[nH]c5c4)ccc3n2C)c1 ?
inactive

Hello, I am checking results. What call was entered for COc1ccc(-n2cnc3cc(NCc4ccco4)ccc32)cc1 ?
active

Hello, I am checking results. What call was entered for O=C(NCCc1ccc(C(F)(F)F)cc1)c1ccc2c(c1)OCO2 ?
inactive
